Experiment: Mouse blood levels of Example 1 following oral and subcutaneous administration
Format: in vivo, albino male mice
Settings: sc, subcutaneous 50 mg/kg, 5 min, read-out: blood conc.
REPORTED METRIC: concentration at 5 min (ng/mL)
Supply the numeric figure in ng/mL, leaving out any unit text.

**Query** What does the record list as concentration at 5 min for CC(=O)C=C(C)CC1OCC(CC2OC2C(C)C(C)O)C(O)C1O (stereo not shown) ?
**Result** 16400

====

Test: Mean serum concentrations in milk weaned piglets after oral administration
Type: in vivo
Settings: pig, p.o. 50 mg/kg, 10'
REPORTED METRIC: concentration at 10 min (ng/mL)
Field: numeric (ng/mL). Do not append units.

**Query** Quick one: concentration at 10 min for CCCCC(=O)C=C(C)CC1OCC(CC2OC2C(C)C(C)O)C(O)C1O (stereo not shown) ?
**Result** 2100
